Test system: CLK1
experimental-setup: concentration: 1 μM, replicates: in singlicate; n = 1
Rule: yes for %Inh not less than 10%, no for anything less.

// below: answered compounds
CCCc1ccc(S(=O)(=O)NC2CCN(c3ccnc(Nc4ccc(F)cc4)n3)C2)cc1 (stereo not drawn) : yes
C[C@@H]1CCCCN1c1cc(-c2ccc3c(N)n[nH]c3c2)nc(N)n1 : yes
COc1cc(Nc2nccc(N3CCC(NC(=O)Nc4cc(C)ccc4C)C3)n2)cc(OC)c1OC (stereo not drawn) : yes
Cc1cc(N2Cc3ccccc3C2)nc(Nc2ccc(S(=O)(=O)N3CCOCC3)cc2)n1.Cl : no

Problem: Dear colleague, could you confirm whether Nc1nc(-c2nccs2)c(-c2ccnc3ccccc23)s1 has %Inh at or above 10%?
Solution: yes

Problem: Test whether the compound Cc1c(Cn2ccn3c(=O)cc(N4CCOCC4)nc23)cccc1C(F)(F)F records %Inh of 10% or higher.
Solution: yes

* * *

Entries and their measured %Inh follow.
Test system: CDK3
experimental-setup: concentration: 1 μM, replicates: in singlicate; n = 1
Write it as a number; the unit % goes unstated.

Examples with answers:
COc1cc2ncnc(Nc3ccc4nc(-c5ccccc5)[nH]c4c3)c2cc1OC.Cl : 22
Cn1ccc2ncnc(Oc3cccc(C(=O)Nc4ccccc4)c3)c21 : 1
CCn1c(-c2ccccn2)nc2cnccc21 : 0
COc1ccc(Nc2nccc(NCCNC(=O)Nc3ccccc3F)n2)cc1 : 16
COc1ccccc1-c1ccc2c(NC(=O)C3CC3)n[nH]c2n1 : 8

Problem: For Cc1cccc(-c2nc(-c3ccc(S(C)(=O)=O)cc3)sc2-c2ccnc(NCCc3ccccc3)c2)c1 , write its %Inh.
Solution: 0

* * *

Test system: RSK2(Kin.Dom.1-N-terminal)
Construct: gene RPS6KA3
experimental-setup: concentration: 1 μM, replicates: in singlicate; n = 1
Measured %Inh of individual entries
State just the number; it will be interpreted in %.

Use these answered entries as a reference point.
Cc1cccc(-c2nc(C)cc(Nc3ccncc3)n2)n1 : 0
COc1cc2nccc(Nc3ccc(NC(=O)c4ccc(C)cc4)c(O)c3)c2cc1OC.Cl : 7
CCCc1ccc(S(=O)(=O)NC2CCN(c3ccnc(Nc4ccc(F)cc4)n3)C2)cc1 (stereo not drawn) : 8
O=c1cc(N2CCOCC2)nc2n(Cc3cccc(Cl)c3Cl)ccn12 : 0
COc1ccc(CNC(=O)NC2CCN(c3ccnc(Nc4cc(OC)c(OC)c(OC)c4)n3)C2)cc1 (stereo not drawn) : 3
COc1ccc(C2=C(Nc3cccc(C(=O)O)c3)C(=O)NC2=O)cc1 : 34
Cn1ccc2ncnc(Oc3ccc(Nc4nc5ccccc5[nH]4)cc3)c21 : 0
Cc1ccccc1-n1cnc2c(N)ncnc21 : 0

Problem: Consider the molecule O=C(Nc1n[nH]c2nc(-c3nccs3)c(Br)cc12)C1CC1 . State its measured %Inh.
Solution: 11

* * *

Test system: PIP5K2C
Construct: gene PIP4K2C
property: pKd
Schema: pKd number; meaning minus log10 of the concentration expressed in molar units.

Problem: Recall and state the measured pKd for COc1ccc(Nc2nccc(-c3cccc(NC(=O)c4cc5cc(F)ccc5[nH]4)c3)n2)cc1 [GSK1229782] .
Solution: 5.85

* * *

The following compounds have recorded Kd on FLT3.
Express your answer in nM, writing the number without its unit.

Cn1ccc2ncnc(Oc3ccc(NC(=O)Nc4ccccc4)cc3)c21 : 33

Would you kindly look at the next entry?
Problem: State Kd on FLT3. Entry: O=C(Nc1n[nH]c2nc(-c3nccs3)c(Br)cc12)C1CC1 [SB-742251]
Solution: 190
